Assay: ATG_CMV_CIS: Attagene CIS-FACTORIAL HepG2 Assay for human CMV (Internal Marker) (AID 2282928);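 note: endpoint acts as a background internal control marker rather than a target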
Details: HepG2 CMV promoter reporter, transcription factor profiling; actives raise or lower the signal
Activity calls are given as the source filed them. Rule for the calls: active = hit-call score of the fitted dose curve at least 0.9, where 1 is the maximum; inactive = score below 0.9.
propertyLabel: AC50

>  <molecule>
CC(C)COC(=O)c1ccccc1C(=O)OCC(C)C

>  <measuredValue>
67.5 µM (active)

$$$$
>  <molecule>
Oc1ccccc1Cl

>  <measuredValue>
inactive

$$$$
>  <molecule>
O=C(N[C@H](c1ccccc1)[C@@H]1CN2CCC1CC2)c1c(Cl)ccc(C(F)(F)F)c1Cl

>  <measuredValue>
inactive

$$$$
>  <molecule>
Nc1cc(Cl)cc(C(=O)O)c1Cl

>  <measuredValue>
inactive

$$$$
>  <molecule>
[O-][Cl+]O

>  <measuredValue>
inactive

$$$$
>  <molecule>
ClCCOCCCl

>  <measuredValue>
inactive

$$$$
>  <molecule>
Cc1cc(N=Nc2ccccc2C)ccc1N

>  <measuredValue>
inactive

$$$$
>  <molecule>
[As]#[In]

>  <measuredValue>
inactive

$$$$
>  <molecule>
CN(C)c1ccccc1

>  <measuredValue>
inactive

$$$$
>  <molecule>
Nc1ccc([N+](=O)[O-])cc1

>  <measuredValue>
inactive

$$$$
>  <molecule>
CCCSC(=O)N(CCC)CCC

>  <measuredValue>
inactive

$$$$
>  <molecule>
CCOC(=O)[C@]1(c2ccccc2)Oc2ccccc2[C@@H]1N

>  <measuredValue>
33 µM (active)

$$$$
>  <molecule>
CCN(CC)CCO

>  <measuredValue>
inactive

$$$$
>  <molecule>
CCCCCCCCn1sccc1=O

>  <measuredValue>
19.1 µM (active)

$$$$
>  <molecule>
CC(C)(OOC(C)(C)c1ccccc1)c1ccccc1

>  <measuredValue>
48.7 µM (active)

$$$$
>  <molecule>
O=C(O)C1C2CCC(O2)C1C(=O)O (stereo unspecified)

>  <measuredValue>
77.8 µM (active)

$$$$
>  <molecule>
Cc1ccc(N)c(N)c1

>  <measuredValue>
33.3 µM (active)

$$$$
>  <molecule>
COc1cc(C=O)cc2c1[C@H](COC(N)=O)[C@]1(OC(C)=O)ON2C[C@H]2[C@@H]1N2C(C)=O

>  <measuredValue>
inactive

$$$$
>  <molecule>
CCN(CC)N=O

>  <measuredValue>
inactive

$$$$
>  <molecule>
c1ccc(C2CO2)cc1 (stereo unspecified)

>  <measuredValue>
inactive

$$$$
>  <molecule>
c1ccc2c(c1)oc1ccccc12

>  <measuredValue>
inactive

$$$$

###

Assay: ATG_VDRE_CIS: Attagene CIS-FACTORIAL HepG2 Assay for human Vitamin D Receptor Element (VDRE) (AID 2282968)
Details: HepG2 VDRE cis-reporter transcription, actives raise or lower the signal
The source made the active and inactive calls. Rule for the calls: active = hit-call score of the fitted dose curve at least 0.9, where 1 is the maximum; inactive = score below 0.9.
Outcome codes: active, inactive

>  <compound>
CCCCC(CC)COC(=O)c1ccc(C(=O)OCC(CC)CCCC)c(C(=O)OCC(CC)CCCC)c1 (stereo not drawn)

>  <groupLabel>
inactive

$$$$
>  <compound>
c1ccc(NNc2ccccc2)cc1

>  <groupLabel>
inactive

$$$$
>  <compound>
Cc1ccc(N=C=O)cc1N=C=O

>  <groupLabel>
inactive

$$$$
>  <compound>
Nc1ccc(N=Nc2ccccc2)cc1

>  <groupLabel>
active

$$$$
>  <compound>
CC(C)(O)c1cnn2c(-c3ccc(F)c(-c4c(F)cccc4C#N)c3)cnc2n1

>  <groupLabel>
active

$$$$
>  <compound>
O=[N+]([O-])C(Br)(CO)CO

>  <groupLabel>
active

$$$$
>  <compound>
Brc1ccc(Oc2ccccc2)cc1

>  <groupLabel>
inactive

$$$$
>  <compound>
Clc1ccc(Cl)c(Cl)c1

>  <groupLabel>
inactive

$$$$
>  <compound>
Nc1ccc([N+](=O)[O-])cc1

>  <groupLabel>
inactive

$$$$
>  <compound>
OCCOCCO

>  <groupLabel>
inactive

$$$$
>  <compound>
C=CCc1ccc2c(c1)OCO2

>  <groupLabel>
inactive

$$$$
>  <compound>
CCC[CH2][Sn]([Cl])([CH2]CCC)[CH2]CCC

>  <groupLabel>
active

$$$$
>  <compound>
Clc1ccccc1Cl

>  <groupLabel>
inactive

$$$$
>  <compound>
CC(C)(C)OOC(C)(C)CCC(C)(C)OOC(C)(C)C

>  <groupLabel>
inactive

$$$$
>  <compound>
Oc1ccc2ccc3cccc4ccc1c2c34

>  <groupLabel>
inactive

$$$$
>  <compound>
Cc1cc(N=Nc2ccccc2C)ccc1N

>  <groupLabel>
active

$$$$
>  <compound>
CNC(=O)Oc1cccc2c1OC(C)(C)C2

>  <groupLabel>
inactive

$$$$
>  <compound>
c1ccc2c(c1)oc1ccccc12

>  <groupLabel>
inactive

$$$$

###

Read-out: Interleukin-6 (IL6), IL6 (gene 3569)
Assay: BSK_CASM3C_IL6: BioMAP Diversity Plus: CASM3C Assay for Interleukin-6 (IL6) Biomarker Activity for (AID 2283040)
Settings: primary human coronary artery smooth muscle cells; actives raise or lower the signal
Calls of active or inactive are those of the source. Rule for the calls: active = hit-call score of the fitted dose curve at least 0.9, where 1 is the maximum; inactive = score below 0.9.
propertyLabel: outcome

>  <givenSmiles>
c1ccc(NNc2ccccc2)cc1

>  <propertyLabel>
outcome

>  <measuredValue>
inactive

$$$$
>  <givenSmiles>
CCOC(=O)[C@]1(c2ccccc2)Oc2ccccc2[C@@H]1N

>  <propertyLabel>
outcome

>  <measuredValue>
inactive

$$$$
>  <givenSmiles>
CCN(CC)CCO

>  <propertyLabel>
outcome

>  <measuredValue>
inactive

$$$$

###

Assay: BSK_LPS_PGE2: BioMAP Diversity Plus: LPS Assay for Prostaglandin E2 (PGE2) Biomarker Activity (AID 2283082)
Details: primary human HUVEC with PBMC; actives raise or lower the signal
The source made the active and inactive calls. Rule for the calls: active = hit-call score of the fitted dose curve at least 0.9, where 1 is the maximum; inactive = score below 0.9.
Outcome codes: true (1) (active), false (0) (inactive)

>  <givenSmiles>
COP(=S)(OC)SCN1C(=O)c2ccccc2C1=O

>  <groupLabel>
false (0)

$$$$
>  <givenSmiles>
N#CC(Br)(Br)C(N)=O

>  <groupLabel>
false (0)

$$$$
>  <givenSmiles>
CN(C)C(=O)Nc1ccc(Cl)cc1

>  <groupLabel>
false (0)

$$$$
>  <givenSmiles>
N#CC(Br)Br

>  <groupLabel>
false (0)

$$$$
>  <givenSmiles>
O=C(Oc1ccc(Br)cc1)N1CCN2CCC1CC2

>  <groupLabel>
false (0)

$$$$
>  <givenSmiles>
CCCCCCCCn1sccc1=O

>  <groupLabel>
true (1)

$$$$
>  <givenSmiles>
Brc1ccc(Oc2ccccc2)cc1

>  <groupLabel>
false (0)

$$$$
>  <givenSmiles>
CCC[CH2][Sn]([Cl])([CH2]CCC)[CH2]CCC

>  <groupLabel>
false (0)

$$$$

###

Experiment: BSK_3C_SRB: Viability Assessment in the BioMAP Diversity Plus: 3C Assay (AID 2283023);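 note: cells read 24 h after compound dosing; fitted both ways against DMSO so a hit may be signal rise or drop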
Details: primary human endothelial cells (HUVEC)
Experimental: BSK_3C is a cell-based, multiplexed-readout assay that uses umbilical vein endothelium, a human vascular primary cell, with measurements taken at 24 hours after chemical dosing in a 96-well plate.BSK_3C_SRB is an assay component measured in the BSK_3C assay. It measures 0.1% sulforhodamine related to cell death using Sulforhodamine staining technology.Data from the assay component BSK_3C_SRB was analyzed into 1 assay endpoint. […]
The source made the active and inactive calls. The calls were made as follows: active = hit-call score of the fitted dose curve at least 0.9, where 1 is the maximum; inactive = score below 0.9.
Outcome codes: TRUE (active), FALSE (inactive)

>  <compound>
CN(C)c1ccccc1

>  <groupLabel>
FALSE

$$$$
>  <compound>
c1ccc(C2CO2)cc1 (stereo not given)

>  <groupLabel>
FALSE

$$$$
>  <compound>
C[C@]12C=CC3=C4CCC(=O)C=C4CC[C@H]3[C@@H]1CC[C@@H]2O

>  <groupLabel>
TRUE

$$$$
>  <compound>
O=C(Oc1ccc(Br)cc1)N1CCN2CCC1CC2

>  <groupLabel>
FALSE

$$$$
>  <compound>
CCCCC(CC)COC(=O)c1ccc(C(=O)OCC(CC)CCCC)c(C(=O)OCC(CC)CCCC)c1 (stereo not given)

>  <groupLabel>
FALSE

$$$$
>  <compound>
c1ccc2c(c1)-c1cccc3cccc-2c13

>  <groupLabel>
FALSE

$$$$
>  <compound>
OCCCl

>  <groupLabel>
FALSE

$$$$
>  <compound>
CCOC(=O)[C@]1(c2ccccc2)Oc2ccccc2[C@@H]1N

>  <groupLabel>
TRUE

$$$$
>  <compound>
CS(=O)(=O)NC(=O)c1cc(Oc2ccc(C(F)(F)F)cc2Cl)ccc1[N+](=O)[O-]

>  <groupLabel>
FALSE

$$$$
>  <compound>
CC(C)(OOC(C)(C)c1ccccc1)c1ccccc1

>  <groupLabel>
TRUE

$$$$
>  <compound>
CC(C)COC(=O)c1ccccc1C(=O)OCC(C)C

>  <groupLabel>
TRUE

$$$$
>  <compound>
COC(=O)c1ccccc1N

>  <groupLabel>
FALSE

$$$$
>  <compound>
OCCOCCO

>  <groupLabel>
FALSE

$$$$
>  <compound>
Clc1ccc(Cl)c(Cl)c1

>  <groupLabel>
FALSE

$$$$
>  <compound>
Cn1cc(-c2ccccc2)c(=O)c(-c2cccc(C(F)(F)F)c2)c1

>  <groupLabel>
FALSE

$$$$
